Values compiled from PubChem BioAssay (NCI).

Experiment: NCI Yeast Anticancer Drug Screen. Data for the sgs1 mgt1 strain (AID 161)
Details: S. cerevisiae sgs1 mgt1 strain, at 50.0 µM (retest, dose inferred, filed as 5.0)
About 79,000 compounds went through this panel and 15% of them were active in at least one assay; those are over-represented in the sample as a whole. The source made the active and inactive calls. No stated cut-off is given here; in the data, active means growth inhibition above about 70%; inactive means the rest.
Entry note: the call must match one of active, inactive

Qu. Outcome logged for CC(C)C(=O)CC(Sc1ccc(N)cc1)c1ccccc1 (configuration not stated) in this assay:
Ans. active

Qu. Outcome logged for `O=C(c1ccccc1)[C@H]1Nc2ccc(Cl)cc2[C@H]2OCCC[C@@H]12` in this assay:
Ans. inactive

Qu. Outcome logged for `C[n+]1c(-c2ccc(/C=N/NC(=O)c3ccc(C(=O)N/N=C/c4ccc(-c5cn6ccccc6[n+]5C)cc4)cc3)cc2)cn2ccccc21` in this assay:
Ans. inactive

Qu. Outcome logged for `Cc1c2cc[n+](CCO)cc2c(C)c2c1[nH]c1ccc(O)cc12` in this assay:
Ans. inactive

Qu. Outcome logged for `O=[N+]([O-])c1ccc(C(c2c[nH]c3ccccc23)c2c[nH]c3ccccc23)cc1` in this assay:
Ans. active

Qu. Outcome logged for `Oc1ccc(C2(c3ccc(O)cc3)CCCC2)cc1` in this assay:
Ans. inactive

Qu. Outcome logged for `Nc1cc2ccccc2cc1N` in this assay:
Ans. inactive

Qu. Outcome logged for CC1=CN2C(c3ccccc3)=NON(c3ccc(C)cn3)C2C=C1 (configuration not stated) in this assay:
Ans. inactive

Qu. Outcome logged for `O=S1(=O)CCC2=CC(C(F)(F)F)=CC(C(F)(F)F)=CN21` in this assay:
Ans. active

Qu. Outcome logged for `CCOC(=O)/C(=C\c1ccc(F)cc1)C(C)=O` in this assay:
Ans. active

Qu. Outcome logged for `Nc1ccc2c(c1)C(=O)c1c(F)cccc1-2` in this assay:
Ans. inactive

Qu. Outcome logged for `COC(=O)C(=O)c1c(-c2ccc(Cl)c(Cl)c2)[nH]c2[nH]n(-c3ccccc3)c(=O)c2c1=O` in this assay:
Ans. active

Qu. Outcome logged for `NC(N)=NS(=O)(=O)c1ccc(Nc2c3ccccc3nc3c(C(=O)NC(CO)(CO)CO)cccc23)cc1` in this assay:
Ans. inactive

Qu. Outcome logged for `O=C(NC(N1CCN(c2cc3c(cc2F)c(=O)c(C(=O)O)cn3C2CC2)CC1)(C(F)(F)F)C(F)(F)F)c1ccccc1` in this assay:
Ans. inactive

Qu. Outcome logged for `CC(C)OC(=O)NNc1cccc(Cl)c1` in this assay:
Ans. active

Qu. Outcome logged for `Fc1cc(F)c(F)c(S)c1F` in this assay:
Ans. active

Qu. Outcome logged for COc1ccc2c3c1OC(C)C31CC(=O)CCC1CC2 (configuration not stated) in this assay:
Ans. inactive

Qu. Outcome logged for `CCN(CC)CCNc1ccc2ncn3c4ccc(O)cc4c(=O)c1c23` in this assay:
Ans. inactive

Qu. Outcome logged for `Nc1ccc(N=Nc2ccc(-c3ccc(O)cc3)cc2)c2ccc(S(=O)(=O)O)cc12` in this assay:
Ans. inactive

Qu. Outcome logged for `CN(C)CCNC(=Cc1ccc2ccccc2[n+]1C)NCCN(C)C` in this assay:
Ans. inactive

Qu. Outcome logged for `CCCCN(CCC#N)c1ccc(/C=C/c2ccnc3ccccc23)cc1` in this assay:
Ans. active

Qu. Outcome logged for `CN(CCOc1ccc(Cl)cc1)CCOc1ccc(Cl)cc1` in this assay:
Ans. active
